Give measured SHP2 degradation (%) 100 nM for each item. Keep answers brief.
- study-system: SHP2 protein (Homo sapiens, UniProt Q06124)
- Sequence (Q06124 1-593): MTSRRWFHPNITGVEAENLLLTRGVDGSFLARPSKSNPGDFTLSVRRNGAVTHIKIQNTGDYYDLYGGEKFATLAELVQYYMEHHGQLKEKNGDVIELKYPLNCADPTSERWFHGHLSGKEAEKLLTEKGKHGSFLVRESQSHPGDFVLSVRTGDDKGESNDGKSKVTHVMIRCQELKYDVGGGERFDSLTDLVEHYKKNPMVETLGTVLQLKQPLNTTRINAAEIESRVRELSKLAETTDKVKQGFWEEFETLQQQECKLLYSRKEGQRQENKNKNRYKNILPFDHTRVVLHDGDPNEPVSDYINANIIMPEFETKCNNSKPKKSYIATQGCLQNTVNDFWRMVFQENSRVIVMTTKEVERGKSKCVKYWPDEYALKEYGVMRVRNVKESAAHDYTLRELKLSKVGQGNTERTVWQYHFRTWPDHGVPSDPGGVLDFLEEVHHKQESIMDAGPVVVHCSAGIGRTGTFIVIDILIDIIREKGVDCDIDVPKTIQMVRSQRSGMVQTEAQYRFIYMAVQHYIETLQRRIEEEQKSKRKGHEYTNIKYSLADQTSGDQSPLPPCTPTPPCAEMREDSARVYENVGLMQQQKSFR
- assay-remarks: Measurement of SHP2 protein degradation in MV-4-11 cells (western blotting)
- Format: cell-based
- Design: endogenous in cells; host or cells: MV-4-11
- stated-conditions: MV-4-11 cells, 100 nM, 24 hours
Give bare numbers, in %.

Example molecules with recorded SHP2 degradation (%) 100 nM:
INSERT INTO results (line_notation, assay_endpoint, reported) VALUES
  ('Cc1ncsc1-c1ccc(CNC(=O)[C@@H]2C[C@@H](O)CN2C(=O)[C@@H](NC(=O)C2(F)CC2)C(C)(C)C)c(OCC2CCN(C(=O)CCC(=O)Nc3cccc(Sc4cnc(N5CCC(C)(CN)CC5)cn4)c3Cl)CC2)c1', 'SHP2 degradation (%) 100 nM', 95),
  ('Cc1ncsc1-c1ccc(CNC(=O)[C@@H]2C[C@@H](O)CN2C(=O)[C@@H](NC(=O)C2(F)CC2)C(C)(C)C)c(OC2CC3(CCN(C(=O)CC(=O)N(C)c4cccc(Sc5cnc(N6CCC(C)(CN)CC6)cn5)c4Cl)CC3)C2)c1', 'SHP2 degradation (%) 100 nM', 74.1),
  ('Cc1ncsc1-c1ccc(CNC(=O)[C@@H]2C[C@@H](O)CN2C(=O)[C@@H](NC(=O)C2(F)CC2)C(C)(C)C)c(OCC2CCN(C(=O)CC(=O)Nc3cccc(Sc4ncc(N5CCC(C)(N)CC5)nc4N)c3Cl)CC2)c1', 'SHP2 degradation (%) 100 nM', 95.5),
  ('Cc1ncsc1-c1ccc(CNC(=O)[C@@H]2C[C@@H](O)CN2C(=O)[C@@H](NC(=O)C2(F)CC2)C(C)(C)C)c(OCCCC2CCN(C(=O)C3(C(=O)Nc4cccc(Sc5cnc(N6CCC(C)(CN)CC6)cn5)c4Cl)CC3)CC2)c1', 'SHP2 degradation (%) 100 nM', 57.3),
  ('CC(=O)N[C@H](C(=O)N1C[C@H](O)C[C@H]1C(=O)NCc1ccc(-c2scnc2C)cc1OCC1CCN(C(=O)CC(=O)Nc2cccc(Sc3cnc(N4CCC(C)(CN)CC4)cn3)c2Cl)CC1)C(C)(C)C', 'SHP2 degradation (%) 100 nM', 96.5),
  ('Cc1ncsc1-c1ccc(CNC(=O)[C@@H]2C[C@@H](O)CN2C(=O)[C@@H](NC(=O)C2(F)CC2)C(C)(C)C)c(OCCCC2CCN(CCC(=O)Nc3cccc(Sc4cnc(N5CCC(C)(CN)CC5)cn4)c3Cl)CC2)c1', 'SHP2 degradation (%) 100 nM', 75.5),
  ('Cc1ncsc1-c1ccc(CNC(=O)[C@@H]2C[C@@H](O)CN2C(=O)[C@@H](NC(=O)C2(F)CC2)C(C)(C)C)c(OCCN2CCN(c3ccc(C(=O)Nc4cccc(Sc5cnc(N6CCC(C)(CN)CC6)cn5)c4Cl)nn3)CC2)c1', 'SHP2 degradation (%) 100 nM', 97.5),
  ('COC(=O)[C@H]1CN(C(=O)CC(=O)Nc2cccc(Sc3cnc(N4CCC(C)(CN)CC4)cn3)c2Cl)CCN1CCOc1cc(-c2scnc2C)ccc1CNC(=O)[C@@H]1C[C@@H](O)CN1C(=O)[C@@H](NC(=O)C1(F)CC1)C(C)(C)C', 'SHP2 degradation (%) 100 nM', 98.1);

Please fill in: SHP2 degradation (%) 100 nM reported for Cc1ncsc1-c1ccc(CNC(=O)[C@@H]2C[C@@H](O)CN2C(=O)[C@@H](NC(=O)C2(F)CC2)C(C)(C)C)c(OCCC2CCN(C(=O)C(=O)Nc3cccc(Sc4cnc(N5CCC(C)(CN)CC5)cn4)c3Cl)CC2)c1 = 72
